These measurements were taken from ChEMBL document CHEMBL1150054.

Give measured inhibition of growth at 0.1 µg/mL for each item. Keep answers brief.
Tested on: P388
Test: Growth inhibition of mouse P388 cells at 0.1 ug/mL after 48 hrs relative to control
Assay type: functional
Conditions: P388, 48 h, read-out: GI
Unit % implied. Number only.

Enquiry: Lookup: inhibition of growth at 0.1 µg/mL / P388 / COc1cccc2c1C(=O)c1c(O)c3c(c(O)c1C2=O)C[C@@](O)(C(=O)CO)C[C@@H]3O[C@H]1C[C@H](N)[C@H](O)[C@H](C)O1 [DOXORUBICIN]
Return: 99

Enquiry: And then C[C@]12CCC[C@@](C)(O)[C@@H]1[C@H]1OC(=O)C(CCl)=C1CC2 , what is it?
Return: 26

Enquiry: And then C=C1C(=O)O[C@@H]2[C@@H]3[C@](C)(CCC[C@@]3(C)O)CC[C@@H]12 [ARBUSCULIN A] , what is it?
Return: 2

Enquiry: And then C[C@]12CCC[C@@](C)(O)[C@@H]1[C@H]1OC(=O)C(CBr)=C1CC2 , what is it?
Return: 3
